Measurement Target: Alpha-ketoglutarate-dependent dioxygenase FTO (Homo sapiens, UniProt Q9C0B1)
Sequence (Q9C0B1 whole entry): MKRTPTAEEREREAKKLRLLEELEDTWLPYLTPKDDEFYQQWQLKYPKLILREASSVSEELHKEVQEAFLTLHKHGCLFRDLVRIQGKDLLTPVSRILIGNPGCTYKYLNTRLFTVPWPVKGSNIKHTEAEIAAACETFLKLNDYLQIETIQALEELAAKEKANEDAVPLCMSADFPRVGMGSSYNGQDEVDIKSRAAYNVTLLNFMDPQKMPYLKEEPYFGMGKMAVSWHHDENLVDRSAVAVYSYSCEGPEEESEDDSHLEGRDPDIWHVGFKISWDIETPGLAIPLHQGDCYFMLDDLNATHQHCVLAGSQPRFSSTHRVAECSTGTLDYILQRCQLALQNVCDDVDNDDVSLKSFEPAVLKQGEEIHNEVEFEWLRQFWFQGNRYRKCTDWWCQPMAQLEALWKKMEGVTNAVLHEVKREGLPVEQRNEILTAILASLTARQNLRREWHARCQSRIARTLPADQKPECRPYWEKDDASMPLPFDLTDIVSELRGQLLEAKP

{"Molecule": "COc1ccc(-c2oc3cc(O)cc(O)c3c(=O)c2O)cc1 [KAEMPFERIDE]", "Unit Annotation": "µM", "IC50": 18.2}
{"Molecule": "O=c1c(O)c(-c2ccc(O)c(O)c2)oc2cc(O)cc(O)c12", "Unit Annotation": "µM", "IC50": 9.5}
{"Molecule": "O=c1c(O)c(-c2ccccc2)oc2cc(O)cc(O)c12", "Unit Annotation": "µM", "IC50": 19.1}

----------
Measurement Target: CYP3A4/5 (Homo sapiens, UniProt P08684+P20815)
Assay Method Text: Inhibition of recombinant CYP3A4/5 in human liver microsome by Liquid chromatography-tandem mass spectrometric analysis
Measurement Context: recombinant CYP3A4/5 in human liver microsomes

{"Structure": "O=C1C[C@@H](c2ccc(O)c(O)c2)Oc2cc(O)cc(O)c21", "Measurement Target": "CYP3A4/5 (Homo sapiens, UniProt P08684+P20815)", "IC50": "> 50 µM"}
